ASSAY_INFO: Chemical stability of the compound assessed as specific activity per ug at 30 uM after 30 mins in presence of purified carboxylesterase 1
Assay type: physicochemical
MEASUREMENT_CONDITIONS: isolated protein, 0.5 h
Could you please report measured Stability for the items listed next?
Numbers only, in pmol/min.

Worked cases, Stability given:
COC(=O)[C@H](C)NP(=O)(OC[C@H]1O[C@@H](n2ccc3c(-c4ccco4)ncnc32)[C@H](O)[C@@H]1O)Oc1ccccc1 (some centres undefined) : 86
CCOC(=O)[C@H](C)NP(=O)(OC[C@H]1O[C@@H](n2ccc3c(-c4ccco4)ncnc32)[C@H](O)[C@@H]1O)Oc1ccccc1 (some centres undefined) : 149
COC(=O)[C@H](C)NP(=O)(OC[C@H]1O[C@@H](n2ccc3c(-c4ccsc4)ncnc32)[C@H](O)[C@@H]1O)Oc1ccccc1 (some centres undefined) : 167

Moving on to the next compound.
*Q* Provide one value: measured Stability of C[C@H](NP(=O)(OC[C@H]1O[C@@H](n2ccc3c(-c4ccco4)ncnc32)[C@H](O)[C@@H]1O)Oc1ccccc1)C(=O)OCc1ccccc1 (some centres undefined)
*A* 133

* * *

System: HCT-116
ASSAY_INFO: Cytotoxicity against human HCT116 cells after 5 days by SRB assay
Format: functional
MEASUREMENT_CONDITIONS: HCT-116, 120 h
METRIC: GI50

# count of solved cases: 3
CCOC(=O)[C@H](C)NP(=O)(OC[C@H]1O[C@@H](n2ccc3c(-c4cccc5c4oc4ccccc45)ncnc32)[C@H](O)[C@@H]1O)Oc1ccccc1 (some centres not stated) : > 10 µM
OC[C@H]1O[C@@H](n2ccc3c(-c4ccccc4)ncnc32)[C@H](O)[C@@H]1O : 5.7 µM
COC(=O)[C@H](C)NP(=O)(OC[C@H]1O[C@@H](n2ccc3c(-c4ccccc4)ncnc32)[C@H](O)[C@@H]1O)Oc1ccccc1 (some centres not stated) : > 10 µM

Dear colleague, could you please provide GI50 for the compounds listed below?
1. CCOC(=O)[C@H](C)NP(=O)(OC[C@H]1O[C@@H](n2ccc3c(-c4ccsc4)ncnc32)[C@H](O)[C@@H]1O)Oc1ccccc1 (some centres not stated)
2. COC(=O)[C@H](C)NP(=O)(OC[C@H]1O[C@@H](n2ccc3c(-c4ccsc4)ncnc32)[C@H](O)[C@@H]1O)Oc1ccccc1 (some centres not stated)
3. C[C@H](NP(=O)(OC[C@H]1O[C@@H](n2ccc3c(-c4ccoc4)ncnc32)[C@H](O)[C@@H]1O)Oc1ccccc1)C(=O)OCc1ccccc1 (some centres not stated)
4. COC(=O)[C@H](C)NP(=O)(OC[C@H]1O[C@@H](n2ccc3c(-c4ccoc4)ncnc32)[C@H](O)[C@@H]1O)Oc1ccccc1 (some centres not stated)

*A*
> 10 µM
> 10 µM
1.42 µM
7.95 µM

* * *

ASSAY_INFO: Efflux ratio of permeability from basolateral to apical side over apical to basolateral side in human Caco2 cells at 10 uM after 60 to 120 mins by HPLC analysis
Format: ADME, cell-based
MEASUREMENT_CONDITIONS: Caco-2
Hi there, I'd appreciate the recorded efflux ratio at 10 µM for every entry that follows.
Give bare numbers.

C[C@H](NP(=O)(OC[C@H]1O[C@@H](n2ccc3c(-c4cccs4)ncnc32)[C@H](O)[C@@H]1O)Oc1ccccc1)C(=O)OCc1ccccc1 (some centres undefined) : 12
CCOC(=O)[C@H](C)NP(=O)(OC[C@H]1O[C@@H](n2ccc3c(-c4cccs4)ncnc32)[C@H](O)[C@@H]1O)Oc1ccccc1 (some centres undefined) : 12.7

// each compound listed below needs its efflux ratio at 10 µM
1. OC[C@H]1O[C@@H](n2ccc3c(-c4cccs4)ncnc32)[C@H](O)[C@@H]1O
2. COC(=O)[C@H](C)NP(=O)(OC[C@H]1O[C@@H](n2ccc3c(-c4cccs4)ncnc32)[C@H](O)[C@@H]1O)Oc1ccccc1 (some centres undefined)

*A*
5.9
13.3

All values here come from ChEMBL document CHEMBL1641589.
